- Study target: NAD-dependent protein deacetylase sirtuin-2 (Homo sapiens)
- Experimental details: Inhibition of human SIRT2 at 200 uM
Observable: inhibition (%)

# Structure as smiles, inhibition (%)
data = [
    ("O=C(CNC(=O)c1nc(-c2ccccc2)no1)Nc1ccccc1", 17),
    ("CC(C)(C)c1ccc(-c2noc(C(=O)NNC(=S)Nc3ccc(C(F)(F)F)cc3)n2)cc1", 89),
    ("CCCCNC(=O)NNC(=O)c1nc(-c2ccc(C(C)(C)C)cc2)no1", 7),
    ("CC(C)(C)OC(=O)Nc1cccc(-c2noc(C(=O)NNC(=S)Nc3ccc(C(F)(F)F)cc3)n2)c1", 71),
    ("O=C(NNC(=S)Nc1ccc(F)cc1)c1nc(-c2cccc3ccccc23)no1", 35),
    ("CC(C)(C)c1ccc(-c2noc(C(=O)NNC(=S)Nc3ccccc3)n2)cc1", 29),
]

1: CC(C)(C)c1ccc(-c2noc(C(=O)NNC(=O)Nc3ccccc3)n2)cc1
2: O=C(NNC(=S)Nc1ccc(C(F)(F)F)cc1)c1nc(-c2ccccc2)no1
3: O=C(NNC(=S)Nc1ccc(C(F)(F)F)cc1)c1nc(-c2cccc3ccccc23)no1
4: O=C(CCCc1nc(-c2ccccc2)no1)Nc1ccccc1
-- ask Arrange the 4 entries by inhibition so the values rise. // rank by listing labels in the order requested
-- reply 4, 2, 1, 3

----------
- Study target: NAD-dependent protein deacetylase sirtuin-1 (Homo sapiens, UniProt Q96EB6)
- Sequence (Q96EB6 whole entry): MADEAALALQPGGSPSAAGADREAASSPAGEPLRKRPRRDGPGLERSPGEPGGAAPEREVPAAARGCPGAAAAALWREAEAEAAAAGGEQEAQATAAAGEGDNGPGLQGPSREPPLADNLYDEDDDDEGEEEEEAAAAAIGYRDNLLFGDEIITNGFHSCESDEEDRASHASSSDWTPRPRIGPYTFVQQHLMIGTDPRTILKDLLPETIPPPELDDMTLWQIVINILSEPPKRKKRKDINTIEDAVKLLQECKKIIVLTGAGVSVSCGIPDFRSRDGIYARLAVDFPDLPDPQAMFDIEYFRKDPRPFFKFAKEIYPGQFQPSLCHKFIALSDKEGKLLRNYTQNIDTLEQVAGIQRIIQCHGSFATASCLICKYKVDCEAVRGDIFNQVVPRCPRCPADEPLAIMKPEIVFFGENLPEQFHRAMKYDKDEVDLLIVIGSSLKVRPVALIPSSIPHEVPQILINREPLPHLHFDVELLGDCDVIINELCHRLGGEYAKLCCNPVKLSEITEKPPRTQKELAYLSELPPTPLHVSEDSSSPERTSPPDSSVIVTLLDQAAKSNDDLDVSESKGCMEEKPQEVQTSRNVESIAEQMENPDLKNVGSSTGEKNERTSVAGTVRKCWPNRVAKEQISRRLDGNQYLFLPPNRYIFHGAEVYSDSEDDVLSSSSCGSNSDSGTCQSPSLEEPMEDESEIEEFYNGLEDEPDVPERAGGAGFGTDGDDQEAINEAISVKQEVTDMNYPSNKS
Observable: IC50 (µM)

a: CC(C)(C)OC(=O)Nc1cccc(-c2noc(C(=O)NNC(=S)Nc3ccc(C(F)(F)F)cc3)n2)c1
b: CC(C)(C)c1ccc(-c2noc(C(=O)NNC(=S)Nc3ccc(C(F)(F)F)cc3)n2)cc1
-- ask From the recorded data, which exceeds the other in IC50: a or b ? Use the label to indicate which entry you chose.
-- reply b
(b: 325 µM, a: 168 µM)
